Here the recorded pIC50 is given for each entry.
Biological target: Neuropeptide Y receptor type 1 (Homo sapiens)
Sequence (P25929 whole entry): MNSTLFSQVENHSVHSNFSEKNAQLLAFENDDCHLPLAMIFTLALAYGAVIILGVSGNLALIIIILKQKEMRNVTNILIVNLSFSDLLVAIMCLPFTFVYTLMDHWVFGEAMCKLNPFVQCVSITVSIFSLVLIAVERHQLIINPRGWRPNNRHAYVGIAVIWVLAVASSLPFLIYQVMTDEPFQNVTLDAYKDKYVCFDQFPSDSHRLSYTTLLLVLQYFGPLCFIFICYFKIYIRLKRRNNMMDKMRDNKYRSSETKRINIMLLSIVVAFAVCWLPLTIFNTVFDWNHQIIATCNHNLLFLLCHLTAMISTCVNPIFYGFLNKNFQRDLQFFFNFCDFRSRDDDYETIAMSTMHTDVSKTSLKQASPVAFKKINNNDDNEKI
Test: Inhibition of binding of [3H]propionyl-NPY (1 nM) to Neuropeptide Y receptor type 1 in SK-N-MC cells
Type: cell-based
// field semantics: pIC50 = negative decimal log of concentration (mol/L)

Reference set, count: 3
N=C(N)NCCCC(NC(=O)C(c1ccccc1)c1ccccc1)C(=O)N[C@H](CO)c1ccccc1 (some centres undefined); 6.74
CC(NC(=O)C(CCCN=C(N)N)NC(=O)C(c1ccccc1)c1ccccc1)c1ccc(O)cc1 (racemic); 7.72
N=C(NCCCc1ccccc1)NCCCC(NC(=O)Cc1ccc(-c2ccccc2)cc1)C(=O)N1CCCc2cc(O)ccc2C1 (centres undefined); 4.66

Then there is this compound:
## Input Look up pIC50 of N=C(N)NCCCC(NC(=O)C(c1ccccc1)c1ccc(Cl)cc1)C(=O)NCc1ccccc1 (centres undefined) and report it.
## Output 6.77

====

target: Neuropeptide Y receptor type 5 (Homo sapiens, UniProt Q15761); test: Inhibition of binding of [3H]propionyl-NPY (1 nM) to Neuropeptide Y receptor type 5 in HEC-1-B cells; format: cell-based
Sequence (Q15761 whole entry): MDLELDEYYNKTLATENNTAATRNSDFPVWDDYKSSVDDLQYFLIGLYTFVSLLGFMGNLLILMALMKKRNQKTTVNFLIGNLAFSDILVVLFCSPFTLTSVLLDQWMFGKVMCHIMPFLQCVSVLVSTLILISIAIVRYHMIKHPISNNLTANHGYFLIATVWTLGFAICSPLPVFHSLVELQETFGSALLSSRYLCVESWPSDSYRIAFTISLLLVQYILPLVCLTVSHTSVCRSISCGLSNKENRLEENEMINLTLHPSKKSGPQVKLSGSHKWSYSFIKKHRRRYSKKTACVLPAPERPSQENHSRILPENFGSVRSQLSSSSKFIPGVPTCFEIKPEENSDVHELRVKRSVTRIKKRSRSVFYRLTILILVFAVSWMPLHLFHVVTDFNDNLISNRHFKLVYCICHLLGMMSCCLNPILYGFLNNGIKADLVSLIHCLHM
assay-endpoint: pIC50
// field semantics: pIC50 = negative decimal log of concentration (mol/L)

Reference set, count: 2
N=C(N)NCCCC(NC(=O)C(c1ccccc1)c1ccccc1)C(=O)N1CCCc2cc(O)ccc2C1 (stereo not drawn); 4.60
N=C(N)NCCCC(NC(=O)C(c1ccccc1)c1ccccc1)C(=O)NCc1ccc(O)cc1 (stereo not drawn); 4.10

Then there is this molecule:
## Input Please indicate recorded pIC50 of N=C(N)NCCCC(NC(=O)C(c1ccccc1)c1ccccc1)C(=O)N[C@H](CO)c1ccccc1 (stereo partly drawn) measured with Neuropeptide Y receptor type 5 (Homo sapiens, UniProt Q15761).
## Output 4.17
